- Method: Analytical RP-HPLC retention time (used as indication of hydrophobicity)
- Assay type: physicochemical
- Condition description: analytical reverse phase HPLC, UV chromatogram; free and CF-labelled peptides
CF = 5(6)-carboxyfluorescein
Give measured HPLC tR for each item. Keep answers brief.
Write the quantity with the unit trailing the number.

Query: Which HPLC tR value belongs to CF-LKTLTETLKELTKTLTEL-amide [CF-KLA13, 5(6)-carboxyfluorescein-labelled KLA13] ?
Reply: 13.51 min

Query: Same for CF-APWHLSSQYSRT-amide ({CF}-APWHLSSQYSRT-NH2) [CF-CTP, 5(6)-carboxyfluorescein-labelled CTP]
Reply: 8.45 min

Query: One more substance: CF-HIQLSPFSQSWR-amide [CF-HAP-2, 5(6)-carboxyfluorescein-labelled HAP-2]
Reply: 9.50 min

Query: Could you do the same for CF-KYRSGAITIGY-amide [CF-B, 5(6)-carboxyfluorescein-labelled B] , please?
Reply: 7.62 min
